// data source = ChEMBL document CHEMBL4513216

Quick reference: cytotoxicity at 10 µM of the listed items.
assay: Toxicity liver stage against HepG2, at 10uM; assay type: cell-based; parameters: test concentration 10 uM, cell line HepG2-A16-CD81EGFP; conditions: human, HepG2-A16-CD81EGFP cells; read-out: INHIBITION
ASSAY_METRIC: cytotoxicity at 10 µM (%)

[[record]]
compound = "Cc1ccccc1Cc1nc(CSc2nnc(N)n2C)no1"
measured = 5.26

[[record]]
compound = "CC(C)N(C)CC(=O)N1CCCC(n2ccnc2)C1 (stereo not drawn)"
measured = 5.56

[[record]]
compound = "O=C(Cc1c[nH]c(=O)[nH]c1=O)N1CCCCC1CCc1cccc(O)c1 (stereo not drawn)"
measured = 14.5

[[record]]
compound = "CC(=O)N(Cc1ncc(C)o1)C1CCN(Cc2ccncc2Cl)C1 (stereo not drawn)"
measured = 3.68

[[record]]
compound = "CC(C)NC(=O)N(C)C(c1cccc(F)c1)c1ccccn1 (stereo not drawn)"
measured = 4.86

[[record]]
compound = "Cc1cnn(CC2CCCN2Cc2nc3ccccc3n2C)c1 (stereo not drawn)"
measured = -14.5

[[record]]
compound = "Oc1ccc(N2CCC(Cc3ccccc3)CC2)nn1"
measured = 45.4

[[record]]
compound = "O=C1N(Cc2ccc(F)c(F)c2)CCCC1(O)CNCc1ccccn1 (stereo not drawn)"
measured = -2.63

[[record]]
compound = "COCC(O)CN(C)c1ccnc2ccc(Cl)cc12 (stereo not drawn)"
measured = -5.93

[[record]]
compound = "CCCOCC1CCN(C(=O)c2cnc(-c3csc(C)n3)nc2O)C1 (stereo not drawn)"
measured = 5.25

[[record]]
compound = "COc1ccc(COCC(=O)N2CCC(c3nncn3C)CC2)cc1"
measured = 4.9

[[record]]
compound = "c1cc(-c2nnc(C3(c4ccc5c(c4)OCO5)CCOCC3)o2)ccn1"
measured = -0.973

[[record]]
compound = "COC(=O)c1cccc(C(=O)N2CCCC(n3cncn3)C2)c1 (stereo not drawn)"
measured = -6.48

[[record]]
compound = "Cn1ccnc1N1CCN(C(=O)Cc2ccccc2)CC1"
measured = 3.13

[[record]]
compound = "COc1c(Br)cccc1CCNC(=O)c1ccon1"
measured = -2.88

[[record]]
compound = "O=C(c1cncc(N2CCC3(CC2)NCCNC3=O)n1)N1CCCCC1"
measured = -2.4

[[record]]
compound = "CN(C)C(=O)NC1COC2(CCN(Cc3ccccc3)CC2)C1 (stereo not drawn)"
measured = 4.14

[[record]]
compound = "CNC(=O)[C@@H]1C[C@@H](N)CN1C1CCN(c2ccccc2F)CC1"
measured = -53.3

[[record]]
compound = "Cc1ccc(C(=O)N2CCCC(c3cc(C(F)(F)F)[nH]n3)C2)o1 (stereo not drawn)"
measured = 5.77

[[record]]
compound = "Cc1nc(C)c(C(=O)NCCNC(=O)c2ccc(F)cc2F)s1"
measured = -5.55

[[record]]
compound = "COc1cc(CCNC(=O)NCCC2CCCO2)ccc1C (stereo not drawn)"
measured = 9.92

[[record]]
compound = "Cn1cnc2ccc(NC(=O)CC3CCN(C4CCCCC4)CC3)cc21"
measured = 25.9

[[record]]
compound = "O=S(=O)(c1c(N2CCCC2)ccc2nonc12)N1CCCC1"
measured = 5.95

[[record]]
compound = "CC(C)(C)N1CC(C(=O)NCc2cn3cccnc3n2)CC1=O (stereo not drawn)"
measured = -0.591

[[record]]
compound = "Cc1noc([C@H]2C[C@H]3OCC[C@H]3N(S(C)(=O)=O)C2)n1"
measured = -115

[[record]]
compound = "CN(C)CC(=O)N1C[C@@H]2CC[C@H](Oc3ccccc3Cl)[C@@H]2C1"
measured = 3.22

[[record]]
compound = "c1cnc(N2CCOC3(CCN(CC4CCOC4)CC3)C2)nc1 (stereo not drawn)"
measured = -0.777

[[record]]
compound = "Cc1nc2cc(C(=O)N3CCCC(n4cncn4)C3)ccc2n1C (stereo not drawn)"
measured = -8.26

[[record]]
compound = "CNC(=O)C1CCN(S(C)(=O)=O)CC1"
measured = -4.81

[[record]]
compound = "C=C(C)CNc1nc(CS(=O)(=O)c2ccccc2)cs1"
measured = -8.37

[[record]]
compound = "COc1ccc2c(c1)CCCN(C(C)C(=O)N1CCCC1)C2 (stereo not drawn)"
measured = 10.9

[[record]]
compound = "CC1CCN(Cc2cnc(S(=O)(=O)CC3CC3)n2CC2CCCO2)CC1 (stereo not drawn)"
measured = 6.17

[[record]]
compound = "Cc1ncc(-c2ccnc(NC3CC3)n2)c(-c2cccnc2)n1"
measured = -14.2

[[record]]
compound = "Cc1cnc(CN(C)Cc2cccc(OC(F)(F)F)c2)cn1"
measured = 2.4

[[record]]
compound = "Cn1cc(S(=O)(=O)Nc2c(F)cccc2N2CCCC2)cn1"
measured = -4.24

[[record]]
compound = "COCC(=O)Nc1cnc(N2CCN(c3ccccc3)CC2)nc1"
measured = -9.87

[[record]]
compound = "Cc1nnc(C2CCN(c3ccccc3)CC2)o1"
measured = 8.84

[[record]]
compound = "CCc1ccc(C(=O)N2CCCC2c2c(C)nn(C)c2OC)o1 (stereo not drawn)"
measured = 6.16

[[record]]
compound = "Cc1cc(CN2C[C@@H](C)[C@@]3(CCN(CC(=O)N(C)C)C3=O)C2)oc1C"
measured = 9.94

[[record]]
compound = "Cc1cccc(-c2nnn3c2COC(CNCc2nccs2)C3)c1 (stereo not drawn)"
measured = 4.51

[[record]]
compound = "CC1CCN(c2nc(O)cc(C3CC(=O)N(C4CCCCC4)C3)n2)CC1 (stereo not drawn)"
measured = 3.81

[[record]]
compound = "COC(=O)N1CCCN(Cn2nc(C)c(Br)c2C)CC1"
measured = 8.38

[[record]]
compound = "OCCN1CCN(Cc2coc(-c3ccccc3Cl)n2)CC1"
measured = -7.57

[[record]]
compound = "CCN(C)CC(=O)N1CCc2nc(NC)nc(C(=O)N3CCCC3)c2C1"
measured = -120

[[record]]
compound = "Cc1cc(C(=O)NCC(O)c2ccc(Cl)s2)c(C)o1 (stereo not drawn)"
measured = -6.82

[[record]]
compound = "CCS(=O)(=O)Nc1ccc(C(=O)NCCCN2CCCC2)cc1"
measured = 1.83

[[record]]
compound = "CC(C)NC(=O)c1nc2c(s1)CCCN2c1ccccc1"
measured = 4.29

[[record]]
compound = "CC(C)(C)CN1CCC(c2nccnc2Nc2cnccn2)CC1"
measured = -4.98


----------
assay: Toxicity liver stage against HepG2, at 10uM; format: cell-based; design: test concentration 10 uM, cell line HepG2-A16-CD81EGFP; conditions: human, HepG2-A16-CD81EGFP cells; read-out: INHIBITION
Quick reference: cytotoxicity at 10 µM of the listed items.
ASSAY_METRIC: cytotoxicity at 10 µM (%)

[[record]]
compound = "c1csc(-c2nc(CN3CCOC(Cn4cccn4)C3)co2)c1 (stereo unspecified)"
assay_metric = "cytotoxicity at 10 µM"
result_units = "%"
measured = -11.1

[[record]]
compound = "c1ccc(-c2noc(CN3CCc4cncnc4C3)n2)nc1"
assay_metric = "cytotoxicity at 10 µM"
result_units = "%"
measured = -2.97

[[record]]
compound = "CC(C)(C)c1cccc(OCC(=O)NS(=O)(=O)c2cccnc2)c1"
assay_metric = "cytotoxicity at 10 µM"
result_units = "%"
measured = -12.5

[[record]]
compound = "CCC(NCc1ccccn1)c1ccccc1OCC(=O)NC (stereo unspecified)"
assay_metric = "cytotoxicity at 10 µM"
result_units = "%"
measured = 11.3

[[record]]
compound = "COCCC(=O)NCc1ccc(-c2ccccc2C(=O)O)nc1"
assay_metric = "cytotoxicity at 10 µM"
result_units = "%"
measured = 2.28

[[record]]
compound = "CC(C)CNC(=O)C1(Cc2ccccc2-c2cccs2)CCNC1 (stereo unspecified)"
assay_metric = "cytotoxicity at 10 µM"
result_units = "%"
measured = -31.2


----------
Quick reference: cytotoxicity at 10 µM of the listed items.
assay: Toxicity liver stage against HepG2, at 10uM; assay type: cell-based; set-up: test concentration 10 uM, cell line HepG2-A16-CD81EGFP; conditions: human, HepG2-A16-CD81EGFP cells; read-out: INHIBITION
ASSAY_METRIC: cytotoxicity at 10 µM (%)

[[record]]
compound = "CS(=O)(=O)CCCNC(=O)C1(c2cccc(Cl)c2)CC1"
measured = -2.26

[[record]]
compound = "Cc1cccc(-c2ccc(C(=O)N3CCN(C4CC4)CC3)c(=O)[nH]2)c1"
measured = 13.2

[[record]]
compound = "CNC(=O)N1CCc2nc(C(=O)Nc3cccnc3)sc2CC1"
measured = 1.99

[[record]]
compound = "O=C1CO[C@@H]2CN(C(=O)CCc3ccccc3)C[C@H]2N1"
measured = 6.06

[[record]]
compound = "Cc1cn([C@H]2CCNC[C@]2(C)O)c(=O)[nH]c1=O"
measured = -6.22

[[record]]
compound = "CN(C)C(=O)COC1COC2(CCN(S(C)(=O)=O)CC2)C1 (stereo unspecified)"
measured = -1.08

[[record]]
compound = "COc1ccc(CN(C(=O)C2CCCO2)c2ccncc2)cc1 (stereo unspecified)"
measured = 1.86

[[record]]
compound = "Cc1ccsc1C(=O)NCc1ccnc(C2CCCOC2)n1 (stereo unspecified)"
measured = -23.6

[[record]]
compound = "Cc1ncn(CCNC(=O)Nc2ccc(OC(F)(F)F)cc2)c(=O)c1C"
measured = -1.32

[[record]]
compound = "COC(=O)c1ccc(F)c(Cn2nc(C)cc2C)c1"
measured = 4.11

[[record]]
compound = "CCn1cc(C(=O)NCc2csc(C3CC3)n2)c(C)n1"
measured = 27.4

[[record]]
compound = "CC(C)(C)OC(=O)NCC1CCN(C(=O)c2ccc(F)cc2F)C1 (stereo unspecified)"
measured = 11.5

[[record]]
compound = "O=C(c1ccc2nccn2c1)N1CCC(CCn2cccn2)CC1"
measured = -1.63

[[record]]
compound = "Cc1noc([C@H]2COC[C@H]3CN(C(=O)Cc4ccccc4F)C[C@H]32)n1"
measured = -8.52

[[record]]
compound = "O=C(N1CCCC1)N1CCOCC2(C1)CN(c1ccccc1)C(=O)CO2 (stereo unspecified)"
measured = 4.77

[[record]]
compound = "CC(=O)N1CCO[C@@H]2CN(C(=O)c3ccccc3)CC[C@@H]2C1"
measured = 5.29

[[record]]
compound = "Cc1cc(C)n(CCNC(=O)c2cc(C3CC3)n[nH]2)n1"
measured = 7.39

[[record]]
compound = "Cn1nc(C(=O)NCCc2ccc(OC3CCCC3)cc2)ccc1=O"
measured = -2.61

[[record]]
compound = "Cc1n[nH]c(C)c1C1COCCN1C(=O)c1n[nH]c2ccccc12 (stereo unspecified)"
measured = -3.63

[[record]]
compound = "O=C([C@H]1CC[C@@H]2[C@@H](CCN2C2CCCCC2)O1)N1CCOCC1"
measured = 7.19

[[record]]
compound = "CC(C(=O)N1CCCCCC1)N1CCN(Cc2nccn2C)CC1 (stereo unspecified)"
measured = -5.28

[[record]]
compound = "CCCc1n[nH]c(C2CN(CCn3cccn3)CCO2)n1 (stereo unspecified)"
measured = -11.3

[[record]]
compound = "Cn1c2c(c(=O)n1C)CN(S(=O)(=O)c1cccs1)CCC2"
measured = 8.98

[[record]]
compound = "CN(Cc1ccc2c(c1)OCO2)C(=O)NCCc1cnn(C)c1"
measured = -2.69

[[record]]
compound = "O=C(NCC1Cn2nnc(-c3ccoc3)c2CO1)c1ccc[nH]1 (stereo unspecified)"
measured = 2.61

[[record]]
compound = "Cc1ccc(C(=O)NC2CCN(C(=O)NCc3ccccn3)CC2)o1"
measured = -12.2

[[record]]
compound = "CC(=O)N1CCc2c(nc(N(C)C)nc2NCCc2cccs2)C1"
measured = -54

[[record]]
compound = "CC(NC1(CNC(=O)OC(C)(C)C)CCOCC1)c1ccccc1 (stereo unspecified)"
measured = 3.63

[[record]]
compound = "Cc1ccc(O)c(C(=O)N2CCC(CN3CCCCCC3)CC2)c1"
measured = 5.52

[[record]]
compound = "Cn1cc(CN2CCO[C@H]3CN(Cc4ccsc4)C[C@H]32)cn1"
measured = -147

[[record]]
compound = "Cc1cccc(C)c1OC1CN(Cc2cnc(-c3ccco3)nc2)C1"
measured = 6.17

[[record]]
compound = "COCCNC(=O)[C@@H]1CN(c2cc(OC)ncn2)C[C@H]2OCC[C@H]21"
measured = -3.06

[[record]]
compound = "Cn1nccc1CCC(=O)NC1CCCN(c2ccccn2)C1 (stereo unspecified)"
measured = 4.18

[[record]]
compound = "CC(=O)Nc1nc(C(=O)N2CCCC2c2noc(C)n2)cs1 (stereo unspecified)"
measured = -9.55

[[record]]
compound = "Cc1cnn(CCNCC(=O)NC2(C#N)CCCC2)c1"
measured = -13.2

[[record]]
compound = "COc1cc(CN2CCn3c(CO)nnc3C2)ccc1OC(C)C"
measured = -25.4

[[record]]
compound = "NC(=O)c1cc(-n2cc(-c3cccc(C(=O)O)c3)cn2)cs1"
measured = -0.387

[[record]]
compound = "N#Cc1cccc(NC(=O)C2CCCN2c2nccs2)c1 (stereo unspecified)"
measured = -5.28

[[record]]
compound = "Cc1nn(C)cc1S(=O)(=O)NCC(c1ccccc1)N1CCCCCC1 (stereo unspecified)"
measured = -13.6

[[record]]
compound = "O=C(Nc1ccc2c(c1)OCCO2)c1ccc(=O)[nH]n1"
measured = 18.1

[[record]]
compound = "O=C(C1CCCC1)N1CCC(C2CCN(Cc3ccc(Cl)cc3)C2)CC1 (stereo unspecified)"
measured = -2.45

[[record]]
compound = "COC(=O)c1ccc(Cn2cnc(C#N)n2)cc1"
measured = -4.74

[[record]]
compound = "CN1CCN(C(=O)Cn2nc(C(F)(F)F)c(Br)c2C2CC2)CC1"
measured = -8.5

[[record]]
compound = "Cc1noc(COCC(=O)N2CCCC(c3nccs3)C2)n1 (stereo unspecified)"
measured = 0.172

[[record]]
compound = "COc1cc(CN(C)CCc2ccncc2)c(SC)cc1OC"
measured = -2.92

[[record]]
compound = "Cc1cc2c(=O)n3c(nc2s1)CCN(C(=O)c1c(C)noc1C)CC3"
measured = 17.7

